molecular target: HLA-DR2 (DRB1*1501) on antigen presenting cells (MGAR, L466) (human); assay: cell-based or functional assay; further: test concentration or dose not given here
Reported values of Inhibition of IL-2 production (%), Hy1B for individual entries
parameter: Inhibition of IL-2 production (%), Hy1B

• ENPVVHYFKNIVTPR (Analog of MBP 85-99 with F to Y at the position of MBP residue 91) [synthetic peptide #107] = 64
• AAEKYAAYAAAAAAA [synthetic peptide #55] = 30
• AKAEAAAYAAAAAAA [synthetic peptide #48] = 27
• AAEAYAAAAAAAAAA [synthetic peptide #117] = 25
• AEAKYEAYAAAAAAA [synthetic peptide #67] = 41
• EAAKYEAYKAAAAAA [synthetic peptide #100] = 56
• EEAKYAAYKAAAAAA [synthetic peptide #91] = 54
• AEEKYAAYAAAAAAA [synthetic peptide #56] = 16
• AAAKYAAAAAAAAAA [synthetic peptide #115] = 25
• AAKEYAAYAAAAAAA [synthetic peptide #58] = 16
• AKEKYAAYAAAAAAA [synthetic peptide #63] = 29
• EAAAYKAYKAAAAAA [synthetic peptide #99] = 57
• AEEAYKAYAAAAAAA [synthetic peptide #53] = 13
• EAKAYAAYAAAAAAA [synthetic peptide #75] = 19
• EAKEYAAYAAAAAAA [synthetic peptide #74] = 22
• AAEKAAAAAAAAAAA [synthetic peptide #119] = 26
• AEEKYAAYKAAAAAA [synthetic peptide #83] = 43
• AAEAVAAAAAAAAAA [synthetic peptide #118] = 38
• AEEAYAAYKAAAAAA [synthetic peptide #80] = 30
• KEEYAAAAAAAAAAA [synthetic peptide #42] = 49
• AEKAYAAAAAAAAAA [synthetic peptide #43] = 0
• AKAAYEAYAAAAAAA [synthetic peptide #64] = 18
• AKEAYAAYAAAAAAA [synthetic peptide #57] = 0
• AEAKYAAYKAAAAAA [synthetic peptide #79] = 50
• AEAEYKAYAAAAAAA [synthetic peptide #66] = 43
• EAKAYAAYKAAAAAA [synthetic peptide #86] = 29
• EKAKYEAYKAAAAAA [synthetic peptide #101] = 53
• AAAKVAAAAAAAAAA [synthetic peptide #116] = 30
• AAAEYKAYAAAAAAA [synthetic peptide #70] = 24
• EAAEYAAYKAAAAAA [synthetic peptide #89] = 41
• AAAEYAAYKAAAAAA [synthetic peptide #76] = 52
• AKKEYAEYKAAAAAA [synthetic peptide #103] = 49

Hello, the source for this data is patent US20060020109A1, in case you need it.
